Biological target: T1, endothelin A receptor (ETaR) (Homo sapiens (assumed), UniProt P25101)
T1 construct: endothelin A receptor (ETaR), a GPCR; plasmid and cells were gifts from Gmax Biopharm LLC; also called GPCR; ETaR-expressing CHO cells; source: CHO cells stably expressing and displaying ETaR (provided by Gmax Biopharm LLC); on cells, and in vesicles prepared from them
T1 sequence (P25101 21-427): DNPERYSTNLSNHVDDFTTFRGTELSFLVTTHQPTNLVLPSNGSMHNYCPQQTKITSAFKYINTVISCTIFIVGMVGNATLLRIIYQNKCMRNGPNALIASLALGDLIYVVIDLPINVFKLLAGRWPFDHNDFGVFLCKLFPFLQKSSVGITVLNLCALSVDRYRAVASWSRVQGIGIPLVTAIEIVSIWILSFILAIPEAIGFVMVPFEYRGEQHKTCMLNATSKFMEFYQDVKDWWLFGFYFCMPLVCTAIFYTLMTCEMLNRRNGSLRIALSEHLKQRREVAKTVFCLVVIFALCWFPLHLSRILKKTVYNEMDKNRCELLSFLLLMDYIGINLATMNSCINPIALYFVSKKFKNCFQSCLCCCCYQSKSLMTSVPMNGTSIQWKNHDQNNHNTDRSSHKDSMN
Test: flow cytometry on cells; purified full-length antibodies titrated on ETaR-expressing CHO cells as for scFv; PE-conjugated anti-IgG; Kd from the dose-response curve
Details: one partner purified

| binder | Kd |
| --- | --- |
| anti-GPCR (ETaR) antibody 80H4, full-length, wild type (antibody, V domains shown, heavy-chain variable region of 80H4; heavy-chain constant region (HC); labelled by anti-human IgG; light-chain variable region of 80H4; light-chain constant region (LC); also called WT; full-length wild-type antibody; source: Expi293F, heavy and light chains co-expressed, purified from supernatant (Protein A); copies: 2 + 2) VH: EVQLLESGGGLVQPGGSLRLSCAASGFTFSSYGMSWVRQAPGKGLEWVSAISTNGATAYYADSVKGRFTISRDNSKNTLYLQMNSLRAEDTAVYYCATEKGAMGYWGQGTLVTVSS VL: DIVMTQTPLSLSVTPGQPASISCRSSQNIVHSTGNTYLEWYLQKPGQSPQLLIYKVSNRFSGVPDRFSGSGSGTDFTLKISRVEAEDVGVYYCFQGSHFPFTFGQGTKVEIK | 21.5 nM |
